Test system: MCF7
Experiment Description: cells
Condition Description: Homo sapiens, MCF7, 72 h
Measured Attribute: GI50 (nM)
Hi! Could you send only the number? It should be in nM, unit omitted.

- Smiles Record: "COc1cc2c(=O)n(CCN(C)S(=O)(=O)N3CCCC3)c3c4cc5c(cc4ccc3c2cc1OC)OCO5"
  GI50 / nM: 3800
- Smiles Record: "COc1cc2c(=O)n(CCNS(=O)(=O)N3CCOCC3)c3c4cc5c(cc4ccc3c2cc1OC)OCO5"
  GI50 / nM: 890
- Smiles Record: "COc1cc2c(=O)n(CCNS(=O)(=O)N(C)C)c3c4cc5c(cc4ccc3c2cc1OC)OCO5"
  GI50 / nM: 21000
- Smiles Record: "COc1cc2c(=O)n(CCN(C)S(=O)(=O)N(C)C)c3c4cc5c(cc4ccc3c2cc1OC)OCO5"
  GI50 / nM: 1500

The value of GI50 measured for the molecule COc1cc2c(=O)n(CCN)c3c4cc5c(cc4ccc3c2cc1OC)OCO5 turned out to be 100

response.value for COc1cc2c(=O)n(CCNP(=O)(OC)OC)c3c4cc5c(cc4ccc3c2cc1OC)OCO5 (field: GI50) = 48000

Cited source for all entries: ChEMBL document CHEMBL4364246
